biological target: human GR (Homo sapiens); construct: SW1353 naturally expresses human GR; endogenous in cells; assay: GR agonist potency, MMTV-luciferase reporter in SW1353 cells; conditions: human chondrosarcoma cell-line SW1353 stably transfected with MMTV-luciferase reporter; approx. 18 hours; data as percentage of 1 μM dexamethasone positive control
Sequence (P04150 whole entry): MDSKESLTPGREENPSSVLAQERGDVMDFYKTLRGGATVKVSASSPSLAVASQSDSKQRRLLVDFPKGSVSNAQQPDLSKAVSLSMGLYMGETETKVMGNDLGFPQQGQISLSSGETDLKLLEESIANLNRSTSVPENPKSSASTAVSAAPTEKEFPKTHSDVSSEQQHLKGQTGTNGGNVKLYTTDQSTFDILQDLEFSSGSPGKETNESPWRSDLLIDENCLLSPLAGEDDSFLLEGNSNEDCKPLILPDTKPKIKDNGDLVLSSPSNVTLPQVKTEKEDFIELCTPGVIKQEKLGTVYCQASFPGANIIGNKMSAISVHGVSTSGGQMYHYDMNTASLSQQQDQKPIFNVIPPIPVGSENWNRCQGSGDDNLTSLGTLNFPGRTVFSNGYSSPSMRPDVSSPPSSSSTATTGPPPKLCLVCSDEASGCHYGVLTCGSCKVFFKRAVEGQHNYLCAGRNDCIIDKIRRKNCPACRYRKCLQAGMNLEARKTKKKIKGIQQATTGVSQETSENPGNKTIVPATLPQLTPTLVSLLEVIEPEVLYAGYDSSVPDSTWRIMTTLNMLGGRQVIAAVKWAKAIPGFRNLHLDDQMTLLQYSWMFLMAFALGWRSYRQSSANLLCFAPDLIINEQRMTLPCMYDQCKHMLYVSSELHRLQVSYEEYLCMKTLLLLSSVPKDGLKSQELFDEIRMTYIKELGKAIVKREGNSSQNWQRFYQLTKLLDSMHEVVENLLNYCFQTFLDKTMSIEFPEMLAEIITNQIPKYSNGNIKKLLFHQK
Flag rule - EC50 less than 20 nM flags met; the remaining entries get not met.

Here's what some known entries look like.
compound	measurement target	label value
C[C@@H]1C[C@H]2[C@@H]3C[C@H](F)C4=CC(=O)C=C[C@]4(C)[C@@]3(F)[C@@H](O)C[C@]2(C)[C@@]1(OC(=O)c1ccc(Oc2ccc(O)c(Cl)c2)cc1)C(=O)OCF [Example 44]	human GR (Homo sapiens)	met
C[C@]12C=CC(=O)C=C1[C@@H](F)C[C@H]1[C@@H]3CC[C@](OC(=O)c4ccc(SCc5ccc(O)cc5)cc4)(C(=O)OCC#N)[C@@]3(C)C[C@H](O)[C@@]12F [Example 6]	human GR (Homo sapiens)	not met
CSc1ccc(Oc2ccc(C(=O)OC3(C(=O)OCF)C(C)CC4C5CC(F)C6=CC(=O)C=CC6(C)C5(F)C(O)CC43C)cc2)cc1 (centres unmarked) [Example 52]	human GR (Homo sapiens)	met
CC12C=CC(=O)C=C1CCC1C3CCC(OC(=O)c4ccc(Oc5ccc(Cl)c(O)c5)cc4)(C(=O)OCC#N)C3(C)CC(O)C12F (centres unmarked) [Example 34]	human GR (Homo sapiens)	not met
C[C@]12C=CC(=O)C=C1CC[C@H]1[C@@H]3CC[C@](OC(=O)c4ccc(Oc5ccc(O)cc5)cc4)(C(=O)OCC#N)[C@@]3(C)C[C@H](O)[C@@]12F [Example 16]	human GR (Homo sapiens)	not met
C[C@]12C=CC(=O)C=C1CC[C@H]1[C@@H]3CC[C@](OC(=O)c4ccc(Oc5cccc(O)c5)cc4)(C(=O)OCC#N)[C@@]3(C)C[C@H](O)[C@@]12F [Example 17]	human GR (Homo sapiens)	not met
C[C@]12C=CC(=O)C=C1CC[C@H]1[C@@H]3CC[C@](OC(=O)c4ccc(Sc5ccc(O)c(Cl)c5)cc4)(C(=O)SCC#N)[C@@]3(C)C[C@H](O)[C@@]12F [Example 13]	human GR (Homo sapiens)	not met
C[C@]12C=CC(=O)C=C1CC[C@H]1[C@@H]3CC[C@](OC(=O)c4ccc(Oc5ccc(O)c(Cl)c5)cc4)(C(=O)OCC#N)[C@@]3(C)C[C@H](O)[C@@]12F [Example 37]	human GR (Homo sapiens)	not met
C[C@]12C=CC(=O)C=C1CC[C@H]1[C@@H]3CC[C@](OC(=O)c4ccc(Sc5ccccc5)cc4)(C(=O)SCCl)[C@@]3(C)C[C@H](O)[C@@]12F [Example 30]	human GR (Homo sapiens)	not met

Here is the next item to consider.
Please let me know if C[C@]12C=CC(=O)C=C1CC[C@H]1[C@@H]3CC[C@](OC(=O)c4ccc(Oc5ccccc5)cc4)(C(=O)OCC#N)[C@@]3(C)C[C@H](O)[C@@]12F [Example 14] shows EC50 below 20 nM.
not met
